- Tested on: rodent lifetime carcinogenesis bioassay, tumor incidence TD50
- protocol_text: carcinogenic potency in animals, long-term in vivo studies, CPDB compilation (AID 1745844)
- test_context: mouse; strain B6C3F1; females; by gavage; site: uterus; lesion: endometrium, adenoma + endometrium, adenocarcinoma; dosed 88 weeks; study length 104 weeks
measurement_name: TD50

{"columns": ["chemical_string", "measurement_name", "reported"],
 "data": [
  ["ClCC(Cl)CCl", "TD50", "6.62 mg/kg/day"]
]}

* * *

- System: rodent lifetime carcinogenesis bioassay, tumor incidence TD50
- protocol_text: carcinogenic potency in animals, long-term in vivo studies, CPDB compilation (AID 1745844)
- test_context: rat; strain Fischer 344; females; by gavage; site: thyroid gland; lesion: follicular-cell carcinoma; dosed 100 weeks; study length 104 weeks
measurement_name: TD50 (mg/kg/day)

{"columns": ["chemical_string", "measurement_name", "units_label", "reported"],
 "data": [
  ["CC(C)=CCl", "TD50", "mg/kg/day", 136]
]}
